Target: T1, AAV5 (adeno-associated virus serotype 5)
T1 construct: also called adeno-associated virus serotype 5
Test: SPR, AAV on CM5 chip;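 note: surface plasmon resonance with AAV amine-coupled to the chip as ligand, nanobodies injected as analyte over a concentration series, rate constants and affinity fitted from binding curves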
observed-property: kon (M⁻¹ s⁻¹)
// units = M⁻¹ s⁻¹; emit number, no label

Below, 2 binders whose answers are already recorded.
A4-101 (VHH) VHH: VQLQESGGGLVQPGGSLRLSCAASGSRFSINIMGWYRQAPGKQRELVASVTRGGTTNYADSVKGRFTISRDNPKNTIYLQMNSLRPEDTAVYYCHVDEIRESTWTTSNLWGQGTQVTVSS : 4800
A4-102 (VHH) VHH: VQLQESGGGLVQPGGSLRLSCAASGSHFTINSVGWYRQAPGKQRELVAPVTRGGTTNYADFVKGRFTISRDNAKNTVYLQMNSLRPEDTAVYYCHVDELRDSSWTTSNLWGQGTQVTVSS : 173000

The measured kon associated with A4-114 (VHH) VHH: VQLQESGGGLVQTGGSLRLSCVASGSIFSINTVGWYRQAPGKQRELVATVTRAGSTWYAGSVKGRFTISRDNTKNTIYLQMNSLRPEDTAVYYCHVDELRQSTWTTSNLWGQGTQVTVSS reads 155000

The measured kon associated with A4-104 (VHH) VHH: VQLQESGGGLVQPGGSLRLSCAASGSIFSLNSMGWYRQAPGKQRELVATITSGGSTNYAGSVKGRFTISRDNAKNTVYLQMNNLQPEDTAVYYCHVDEVRESSWTTSNLWGQGTQVTVSS reads 8420

The measured kon associated with A4-111 (VHH) VHH: VQLQESGGGLAQPGGSLRLSCAASGSNFSINTMGWYRQRAGKQREFVATITRGGSTNYGDSVKGRFTISRDNAKTTVYLQMNSLRPEDTAVYYCHLDEVRESTWTTSNLWGQGTQVTVSS reads 85300

The measured kon associated with A4-106 (VHH) VHH: VQLQESGGGLVQPGGSLRLSCIASGSIFSLNAMGWYRQAPGKQRELVATITSGGSTNYADSVKGRFTISRDNAKNTAYLQMNNLQPEDTAVYYCHVDEVRESIWTTSNLWGQGTQVTVSS reads 198000

This collection of values is drawn from patent US20260193326A1.
